# credit: patent US12637468B2

Would you kindly list inhibition at 0.1 µM for each of these compounds?
Biological target: α5-GABAA receptor (Homo sapiens, UniProt P18507+P31644)
Construct: expressed in transfected cells; host or cells: HEK293, monoclonal stably transfected line
Sequence (P31644 32-462): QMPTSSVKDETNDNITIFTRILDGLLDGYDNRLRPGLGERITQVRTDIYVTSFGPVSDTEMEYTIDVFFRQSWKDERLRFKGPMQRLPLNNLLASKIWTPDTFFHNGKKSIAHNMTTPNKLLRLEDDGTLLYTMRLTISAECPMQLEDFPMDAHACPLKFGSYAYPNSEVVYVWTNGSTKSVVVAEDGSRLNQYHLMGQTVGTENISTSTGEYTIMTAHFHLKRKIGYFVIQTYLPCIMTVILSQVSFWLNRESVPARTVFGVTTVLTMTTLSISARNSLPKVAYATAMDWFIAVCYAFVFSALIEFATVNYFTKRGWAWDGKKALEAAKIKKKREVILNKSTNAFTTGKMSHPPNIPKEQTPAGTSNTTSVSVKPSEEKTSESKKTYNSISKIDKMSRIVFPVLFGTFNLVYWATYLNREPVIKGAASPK
Sequence (P28472 26-473 partner): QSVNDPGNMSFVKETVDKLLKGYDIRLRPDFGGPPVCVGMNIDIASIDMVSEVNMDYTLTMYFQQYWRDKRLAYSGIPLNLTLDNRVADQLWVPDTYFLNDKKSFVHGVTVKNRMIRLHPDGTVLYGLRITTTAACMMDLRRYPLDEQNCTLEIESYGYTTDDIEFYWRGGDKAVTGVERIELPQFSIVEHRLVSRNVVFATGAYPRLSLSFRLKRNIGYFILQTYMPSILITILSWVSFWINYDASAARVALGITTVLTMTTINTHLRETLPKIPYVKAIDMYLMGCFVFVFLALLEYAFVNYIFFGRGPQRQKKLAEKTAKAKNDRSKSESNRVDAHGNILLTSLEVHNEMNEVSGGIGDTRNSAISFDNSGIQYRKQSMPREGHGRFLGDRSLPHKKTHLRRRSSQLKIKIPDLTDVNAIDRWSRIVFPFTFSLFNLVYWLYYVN
Sequence (P18507 40-467 isoform P18507-1 limits assumed): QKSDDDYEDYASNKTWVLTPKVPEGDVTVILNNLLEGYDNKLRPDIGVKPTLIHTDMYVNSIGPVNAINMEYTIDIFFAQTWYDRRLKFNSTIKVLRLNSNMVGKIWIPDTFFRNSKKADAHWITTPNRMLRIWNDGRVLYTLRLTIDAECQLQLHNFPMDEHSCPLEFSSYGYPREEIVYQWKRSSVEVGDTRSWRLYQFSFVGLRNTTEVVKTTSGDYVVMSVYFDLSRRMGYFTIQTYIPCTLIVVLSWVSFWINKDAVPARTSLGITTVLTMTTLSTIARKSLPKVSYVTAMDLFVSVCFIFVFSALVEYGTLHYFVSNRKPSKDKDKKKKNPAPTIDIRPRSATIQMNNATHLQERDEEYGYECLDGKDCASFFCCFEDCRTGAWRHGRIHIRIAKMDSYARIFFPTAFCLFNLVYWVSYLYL
Assay: Cell-level screening: whole cell patch clamp, inverse agonist efficacy on α5-GABAA receptor expressed in HEK293
Assay type: cell-based
Details: drug 100 nM, GABA 0.05 μM, HEK293 expressing α5, β3 and γ2 subunits, clamped at −60 mV; read-out: Compound inverse agonist efficacy %
Please give a number only; it is taken to be in %.

Query: Provide one value: measured inhibition at 0.1 µM of COc1cc2nnc(-c3cc(C)on3)n2nc1OCc1ccc2c(n1)CCN([C@@H]1CCOC1)C2 (single isomer, unassigned) [Embodiment 182]
Result: 53.8

Query: Specify inhibition at 0.1 µM for COc1cc2nnc(-c3cc(C)on3)n2nc1OCc1ccc2c(n1)CCN(C1CC(C#N)C1)C2 (centres unmarked) [Embodiment 195] and stop.
Result: 45.8

Query: Return inhibition at 0.1 µM (reported value) for this compound: COc1cc2nnc(-c3cc(C)on3)n2nc1OCc1ccc2c(n1)CCN(C(=O)c1ccccc1)C2 [Embodiment 131]
Result: 52.2

Query: Please supply the value of reported inhibition at 0.1 µM for the item COc1cnc(COc2nn3c(-c4cc(C)on4)nnc3cc2OC)cn1 [Embodiment 44]
Result: 44.8

Query: Name the recorded inhibition at 0.1 µM of the compound listed here: COc1cc2nnc(-c3cc(C)on3)n2nc1OCc1ccc2c(n1)CCN(CC1(C)COC1)C2 [Embodiment 200]
Result: 37.4

Query: Give me measured inhibition at 0.1 µM, please, for this compound: COc1cc2nnc(-c3cc(C)on3)n2nc1OCc1cccc2nccn12 [Embodiment 135]
Result: 39.5

Query: Output measured inhibition at 0.1 µM for this item: COc1cc2nnc(-c3cc(C)on3)n2nc1OCc1cccn(C)c1=O [Embodiment 74]
Result: 40.4

Query: For the compound COc1cc2nnc(-c3cc(C)on3)n2nc1OCc1ccc(OC(C)C)cn1 [Embodiment 25] , give its measured inhibition at 0.1 µM value.
Result: 34.1

Query: Note down inhibition at 0.1 µM recorded for COc1cc2nnc(-c3cc(C)on3)n2nc1OCc1ccc2c(ccn2C)n1 [Embodiment 97]
Result: 32.6

Query: Write down inhibition at 0.1 µM measured for item COc1ccnc(COc2nn3c(-c4cc(C)on4)nnc3cc2OC)c1 [Embodiment 51]
Result: 46.2

Query: Given COc1cc2nnc(-c3cc(C)on3)n2nc1OCc1ccc(OCC2CCOCC2)nn1 [Embodiment 171] , respond with its inhibition at 0.1 µM.
Result: 53.1

Query: Input COc1ccc(COc2nn3c(-c4cc(C)on4)nnc3cc2OC)nn1 [Embodiment 43] , output reported inhibition at 0.1 µM.
Result: 44.2

Query: Tell me inhibition at 0.1 µM reported for COc1cc2nnc(-c3cc(C)on3)n2nc1OCc1ccc2c(cnn2C(C)C)n1 [Embodiment 236]
Result: 54.8

Query: Return inhibition at 0.1 µM for the following compound: COCCCOc1ccc(COc2nn3c(-c4noc(C)n4)nnc3cc2OC)nn1 [Embodiment 129]
Result: 45.8

Query: Answer with the recorded inhibition at 0.1 µM of COc1cc2nnc(-c3cc(C)on3)n2nc1OCc1ccccn1 [Embodiment 33] only.
Result: 40.4

Query: Provide one value: measured inhibition at 0.1 µM of COc1cc2nnc(-c3cc(C)on3)n2nc1OCc1ccc2c(n1)CN(C)C2 [Embodiment 160]
Result: 49.3

Query: Entry COc1cc2nnc(-c3cc(C)on3)n2nc1OCc1cccc(Cl)n1 [Embodiment 18] needs its inhibition at 0.1 µM filled in; supply it.
Result: 23

Query: Report inhibition at 0.1 µM for COc1cc2nnc(-c3cc(C)on3)n2nc1OCc1cccc(C#N)n1 [Embodiment 40]
Result: 39

Query: Please report inhibition at 0.1 µM for the following compound: CCn1nc(C)c2nc(COc3nn4c(-c5cc(C)on5)nnc4cc3OC)ccc21 [Embodiment 243]
Result: 50.5

Query: For the compound COc1cc2nnc(-c3cc(C)on3)n2nc1OCc1ccc(C2CC2)cn1 [Embodiment 34] , report inhibition at 0.1 µM.
Result: 38

Query: Name the recorded inhibition at 0.1 µM of the compound listed here: COc1cc2nnc(-c3cc(C)on3)n2nc1OCc1ccc2c(cnn2C)n1 [Embodiment 73]
Result: 34.5

Query: Tell me measured inhibition at 0.1 µM for COc1cc2nnc(-c3cc(C)on3)n2nc1OCc1ccc2c(n1)CCN(C(=O)N1CCOCC1)C2 [Embodiment 202] please.
Result: 57.4

Query: Provide measured inhibition at 0.1 µM value, entry: COCCCOc1ccc(COc2nn3c(-c4cc(C)on4)nnc3cc2OC)nn1 [Embodiment 15]
Result: 45.8
